// provenance: patent US20240299484A1

assay: Forelimb grip strength test; assay type: in vivo, Swiss Albino mice; settings: Day −28, one hour after treatment, oral once a day for 28 days
Marks after values point to notes of the source that are not given here.
The reader will find reported Forelimb grip strength (gf) Day −28 values listed item by item below.

- COMPOUND_STRING: "NC(=O)NCCC[C@H](N)C(=O)O"
  REPORTED_RESULT: "138.5*** gf"
- COMPOUND_STRING: "CC(C)C[C@H](NC(=O)[C@@H](N)CC(C)C)C(=O)O"
  REPORTED_RESULT: "149.0*** gf"
- COMPOUND_STRING: "N=C(N)NCCC[C@H](N)C(=O)O"
  REPORTED_RESULT: "139.13*** gf"

// below: Forelimb grip strength (gf) Day −28 requested for another compound
Task: I would be grateful if you could share the reported Forelimb grip strength (gf) Day −28 for Cn1c(=O)[nH]c2ncn(C)c2c1=O .
Result: 148.88*** gf

* * *

The reader will find reported TH1(%) values listed item by item below.
test system: TH1; assay: Immune health biomarkers (T helper subsets): TH1; format: in vivo, Swiss Albino mice; settings: T helper subset in blood after 28 days, mice, n = 8
Marks after values point to notes of the source that are not given here.

Worked examples, 3 molecules total:
- COMPOUND_STRING: "CC(C)C[C@H](NC(=O)[C@@H](N)CC(C)C)C(=O)O"
  SYSTEM_TESTED: "TH1"
  TH1(%): "58.86*** %"
- COMPOUND_STRING: "NC(=O)NCCC[C@H](N)C(=O)O"
  SYSTEM_TESTED: "TH1"
  TH1(%): "59.71*** %"
- COMPOUND_STRING: "N=C(N)NCCC[C@H](N)C(=O)O"
  SYSTEM_TESTED: "TH1"
  TH1(%): "53.66*** %"

// below: TH1(%) requested for another molecule
Task: Recorded TH1(%) for Cn1c(=O)[nH]c2ncn(C)c2c1=O with TH1, please?
Result: 65.68*** %

* * *

tested on: C-reactive protein (CRP); assay: Inflammatory markers: CRP; assay type: in vivo, Swiss Albino mice; conditions: vs Exercise Control, 28 days
The reader will find reported CRP Change over control [%] values listed item by item below.
Return type: number; implicit unit %.

Worked examples, 3 compounds total:
- COMPOUND_STRING: "NC(=O)NCCC[C@H](N)C(=O)O"
  CRP Change over control [%] (%): "−16"
- COMPOUND_STRING: "Cn1c(=O)[nH]c2ncn(C)c2c1=O"
  CRP Change over control [%] (%): "−17"
- COMPOUND_STRING: "N=C(N)NCCC[C@H](N)C(=O)O"
  CRP Change over control [%] (%): "−16"

// below: CRP Change over control [%] requested for another compound
Task: I would be grateful if you could share the reported CRP Change over control [%] for CC(C)C[C@H](NC(=O)[C@@H](N)CC(C)C)C(=O)O .
Result: −18

* * *

assay: Treadmill exercise / endurance test; type: in vivo, Swiss Albino mice; conditions: Day −0 (baseline), mice, n = 8
The reader will find reported No. of shocks during treadmill exercise Day −0 values listed item by item below.
Reply: number alone, nothing else.

- COMPOUND_STRING: "CC(C)C[C@H](NC(=O)[C@@H](N)CC(C)C)C(=O)O"
  REPORTED_RESULT: 27.63
- COMPOUND_STRING: "Cn1c(=O)[nH]c2ncn(C)c2c1=O"
  REPORTED_RESULT: 26.5
- COMPOUND_STRING: "NC(=O)NCCC[C@H](N)C(=O)O"
  REPORTED_RESULT: 28.63

// below: No. of shocks during treadmill exercise Day −0 requested for another compound
Task: I would be grateful if you could share the reported No. of shocks during treadmill exercise Day −0 for N=C(N)NCCC[C@H](N)C(=O)O .
Result: 30.38

* * *

The reader will find reported Tfh(%) (mg/L) values listed item by item below.
Test system: Tfh
Assay: Immune health biomarkers (T helper subsets): Tfh
Format: in vivo, Swiss Albino mice
Conditions: T helper subset in blood after 28 days, mice, n = 8
Method: Eight 8-week-old male Swiss Albino mice per experimental group were housed in an animal room at a constant temperature (22±3° C.) and humidity (30%-70%) under a 12:12 h light-dark cycle with standard laboratory diet (Purina 5L79, Rat and Mouse 18% protein; PMI Nutrition International, Brentwood, MO, USA). Distilled water was provided ad libitum. All animal experiments were reviewed and approved by the Institutional Animal Ethical Committee (IAEC) of Radiant Research Services Pvt. […]
Marks after values point to notes of the source that are not given here.

- COMPOUND: "N=C(N)NCCC[C@H](N)C(=O)O [L-Arginine, L-arginine]"
  SYSTEM_TESTED: "Tfh"
  Tfh(%) (mg/L): "44.16*** %"

Task: I would be grateful if you could share the reported Tfh(%) (mg/L) for Cn1c(=O)[nH]c2ncn(C)c2c1=O [Paraxanthine, 1,7-dimethylxanthine] .
Result: 54.96*** %

Task: I would be grateful if you could share the reported Tfh(%) (mg/L) for CC(C)C[C@H](NC(=O)[C@@H](N)CC(C)C)C(=O)O [Dileucine, L-Leucyl-L-leucine] .
Result: 55.72%

Task: I would be grateful if you could share the reported Tfh(%) (mg/L) for NC(=O)NCCC[C@H](N)C(=O)O [L-Citrulline, L-citrulline] .
Result: 40.87*** %

* * *

experiment: Forelimb grip strength test; format: in vivo, Swiss Albino mice; conditions: increase vs Exercise Control, 28 days
The reader will find reported Percentage Increase over control (grip strength) values listed item by item below.
Return type: number; implicit unit %.

- COMPOUND_STRING: "CC(C)C[C@H](NC(=O)[C@@H](N)CC(C)C)C(=O)O"
  SCALE_UNIT: "%"
  REPORTED_RESULT: 76
- COMPOUND_STRING: "NC(=O)NCCC[C@H](N)C(=O)O"
  SCALE_UNIT: "%"
  REPORTED_RESULT: 45
- COMPOUND_STRING: "N=C(N)NCCC[C@H](N)C(=O)O"
  SCALE_UNIT: "%"
  REPORTED_RESULT: 39

Task: I would be grateful if you could share the reported Percentage Increase over control (grip strength) for Cn1c(=O)[nH]c2ncn(C)c2c1=O .
Result: 79
